All values here come from patent US10377791B2.

- experimentalSystem: recombinant human 17β-HSD1 (Homo sapiens)
- Construct: made in house; host or cells: Sd9 (Sf9) insect cells, baculovirus (Bac to Bac Expression System)
- Sequence (P14061 1-328): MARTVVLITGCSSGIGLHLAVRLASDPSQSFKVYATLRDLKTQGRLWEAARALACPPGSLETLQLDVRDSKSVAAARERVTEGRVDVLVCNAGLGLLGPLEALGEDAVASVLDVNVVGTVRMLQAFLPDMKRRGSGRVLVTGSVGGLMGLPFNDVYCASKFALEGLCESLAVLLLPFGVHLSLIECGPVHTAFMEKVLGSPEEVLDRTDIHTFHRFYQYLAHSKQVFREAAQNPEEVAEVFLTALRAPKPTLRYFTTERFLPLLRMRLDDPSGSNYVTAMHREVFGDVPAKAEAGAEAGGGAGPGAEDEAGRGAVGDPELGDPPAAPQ
- experimentalDetails: Inhibition of recombinant human 17β-HSD1
- Assay type: biochemical
- runParameters: inhibitor at 1 μM; 30 nM estrone, 1 mM NADPH, 30 min at RT; read-out: 17β-HDS1 Inhibition % at 1 μM

molecule: Cc1cnc(NC(=O)CC[C@@H]2CC(=O)[C@@]3(C)CCC4c5cc(CN6CCOCC6)c(O)cc5CCC4C23)s1 (some centres unmarked)
unitDescriptor: %
inhibition at 1 µM: 90
--
molecule: Cc1cnc(NC(=O)CC[C@@H]2CC(=O)[C@@]3(C)CCC4c5ccc(O)c(F)c5CCC4C23)s1 (some centres unmarked)
unitDescriptor: %
inhibition at 1 µM: 98
--
molecule: Cc1cnc(NC(=O)CC[C@@H]2CC(=O)[C@@]3(C)CCC4c5cc([N+](=O)[O-])c(O)c(F)c5CCC4C23)s1 (some centres unmarked)
unitDescriptor: %
inhibition at 1 µM: 90
--
molecule: CC(=O)Oc1ccccc1C(=O)Oc1ccc2c(c1)CCC1C2CC[C@]2(C)C(=O)C[C@@H](CCC(=O)Nc3ncc(C)s3)C12 (some centres unmarked)
unitDescriptor: %
inhibition at 1 µM: 58
--
molecule: Cc1cnc(NC(=O)CC[C@@H]2/C(=C/O)C(=O)[C@@]3(C)CCC4c5ccc(O)cc5CCC4C23)s1 (some centres unmarked)
unitDescriptor: %
inhibition at 1 µM: 97
--
molecule: Cc1cnc(NC(=O)CC[C@@H]2CC(=O)[C@@]3(C)CCC4c5ccc(O)c(N)c5CCC4C23)s1 (some centres unmarked)
unitDescriptor: %
inhibition at 1 µM: 87
--
molecule: Cc1cnc(NC(=O)CC[C@@H]2CC(=O)[C@@]3(C)CCC4c5cc(CN6CCOCC6)c(O)c([N+](=O)[O-])c5CCC4C23)s1 (some centres unmarked)
unitDescriptor: %
inhibition at 1 µM: 94
--
molecule: CC(=O)Oc1cc2c(cc1F)C1CC[C@]3(C)C(=O)C[C@@H](CCC(=O)Nc4ncc(C)s4)C3C1CC2 (some centres unmarked)
unitDescriptor: %
inhibition at 1 µM: 57
--
molecule: Cc1cnc(NC(=O)CC[C@@H]2CC(=O)[C@@]3(C)CCC4c5cc([N+](=O)[O-])c(O)c(Cl)c5CCC4C23)s1 (some centres unmarked)
unitDescriptor: %
inhibition at 1 µM: 89
--
molecule: Cc1cnc(NC(=O)CC[C@@H]2CC(=O)[C@@]3(C)CCC4c5cc6ncoc6c(Cl)c5CCC4C23)s1 (some centres unmarked)
unitDescriptor: %
inhibition at 1 µM: 87
--
molecule: Cc1cnc(NC(=O)CC[C@@H]2C(Br)C(=O)[C@@]3(C)CCC4c5cc(Br)c(O)c(Br)c5CCC4C23)s1 (some centres unmarked)
unitDescriptor: %
inhibition at 1 µM: 79
--
molecule: Cc1cnc(NC(=O)CC[C@@H]2CC(=O)[C@@]3(C)CCC4c5cccc(C(C)(C)C)c5CCC4C23)s1 (some centres unmarked)
unitDescriptor: %
inhibition at 1 µM: 90
--
molecule: Cc1cnc(NC(=O)CC[C@@H]2CC(=O)[C@@]3(C)CCC4c5ccc(OS(N)(=O)=O)cc5CCC4C23)s1 (some centres unmarked)
unitDescriptor: %
inhibition at 1 µM: 82
--
molecule: Cc1cnc(NC(=O)CC[C@@H]2CC(=O)[C@@]3(C)CCC4c5cc(Cl)c(O)cc5CCC4C23)s1 (some centres unmarked)
unitDescriptor: %
inhibition at 1 µM: 98
